Biological target: insulin receptor (IR); interaction of IR-Rluc with IRS1-YFP in HEK293 cells (Homo sapiens, UniProt P06213)
Construct: expressed in transfected cells; host or cells: HEK293 cells, transient co-transfection; plasmids provided by Dr. Tarik Issad (Cochin Institute, Paris)
Sequence (P06213 28-758 limits assumed): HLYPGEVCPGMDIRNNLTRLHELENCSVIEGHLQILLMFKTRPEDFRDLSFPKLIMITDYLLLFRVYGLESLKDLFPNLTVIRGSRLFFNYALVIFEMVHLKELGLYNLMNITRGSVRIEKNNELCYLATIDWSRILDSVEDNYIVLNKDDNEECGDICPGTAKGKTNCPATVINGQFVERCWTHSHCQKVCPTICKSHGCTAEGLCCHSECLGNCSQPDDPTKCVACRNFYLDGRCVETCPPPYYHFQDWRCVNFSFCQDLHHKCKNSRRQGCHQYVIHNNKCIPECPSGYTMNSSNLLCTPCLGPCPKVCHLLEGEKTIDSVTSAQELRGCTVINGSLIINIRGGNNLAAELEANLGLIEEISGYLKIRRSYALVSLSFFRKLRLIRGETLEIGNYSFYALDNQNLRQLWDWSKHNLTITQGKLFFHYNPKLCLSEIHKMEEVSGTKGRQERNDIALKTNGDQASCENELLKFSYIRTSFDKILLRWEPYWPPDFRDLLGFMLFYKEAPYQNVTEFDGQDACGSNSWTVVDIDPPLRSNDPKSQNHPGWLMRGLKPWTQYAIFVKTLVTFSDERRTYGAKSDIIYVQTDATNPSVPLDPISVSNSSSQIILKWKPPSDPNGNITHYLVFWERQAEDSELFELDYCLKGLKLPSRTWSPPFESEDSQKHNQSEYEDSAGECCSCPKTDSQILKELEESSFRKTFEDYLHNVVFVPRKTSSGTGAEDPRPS
Sequence (P06213 763-1382 limits assumed): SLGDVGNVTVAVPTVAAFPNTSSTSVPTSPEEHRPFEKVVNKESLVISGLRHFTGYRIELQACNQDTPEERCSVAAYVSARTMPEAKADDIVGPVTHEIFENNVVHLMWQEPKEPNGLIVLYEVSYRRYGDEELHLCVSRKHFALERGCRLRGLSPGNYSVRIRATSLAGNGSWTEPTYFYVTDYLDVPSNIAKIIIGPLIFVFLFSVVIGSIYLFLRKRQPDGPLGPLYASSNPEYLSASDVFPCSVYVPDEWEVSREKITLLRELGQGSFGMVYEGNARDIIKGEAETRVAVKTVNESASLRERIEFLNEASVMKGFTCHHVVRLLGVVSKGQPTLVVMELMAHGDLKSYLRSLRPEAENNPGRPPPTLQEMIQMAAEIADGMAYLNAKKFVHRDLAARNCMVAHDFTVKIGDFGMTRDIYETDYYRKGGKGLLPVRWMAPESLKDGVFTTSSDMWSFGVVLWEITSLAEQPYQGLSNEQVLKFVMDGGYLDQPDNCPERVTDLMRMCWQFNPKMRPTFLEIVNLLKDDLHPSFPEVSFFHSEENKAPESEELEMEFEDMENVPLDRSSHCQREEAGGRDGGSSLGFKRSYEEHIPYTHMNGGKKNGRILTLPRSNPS
Assay: BRET assay of IR activation (IR-Rluc/IRS1-YFP), single treatment, dose-response
Assay type: cell-based
Details: HEK293, read-out: BRET, % of the maximal response of insulin, Average, peptide 1 mg/ml; HEK293, 1 hour, 37°C; minimal data set for Figure 1, average
Residues, ends and D or L forms follow the SMILES beside them.
quantity-measured: Emax (%)
One number for each entry, in %.

Past entries and their recorded results:
| compound | endpoint-unit | observed |
| --- | --- | --- |
| CC(C)C[C@H](N)C(=O)N1CCC[C@H]1C(=O)N[C@H](C(=O)N1CCC[C@H]1C(=O)O)C(C)C [Peptide P6, LPVP] (H-LPVP-OH; N-terminus and C-terminus assumed) | % | 40.4 |
| CC(C)[C@H](N)C(=O)N1CCC[C@H]1C(=O)N[C@@H](Cc1ccccc1)C(=O)O [Peptide P7, VPF] (H-Val-Pro-Phe-OH; N-terminus and C-terminus assumed) | % | 41.1 |
| CC(C)C[C@H](NC(=O)[C@H](Cc1ccccc1)NC(=O)[C@@H]1CCCN1C(=O)[C@H](CCCNC(=N)N)NC(=O)[C@@H](N)CC(C)C)C(=O)O [Peptide P1, LRPFL] (H-LRPFL-OH) | % | 55.3 |

Below: the item to evaluate.
Exam item: Give the measured Emax of CC[C@H](C)[C@H](NC(=O)[C@@H]1CCCN1C(=O)[C@@H](N)Cc1ccc(O)cc1)C(=O)O [Peptide P9, YPI] (H-Tyr-Pro-Ile-OH; N-terminus and C-terminus assumed) .
Marked response: 31.7
